Origin of the recorded values: the NIST ThermoML archive (doi:10.1021/acs.jced.5b00738)

Protocol description: refractive index (Na D-line) (dimensionless)
Protocol conditions: 298.15 K; 101.33 kPa; Liquid; Standard Abbe refractometry
± gives the expanded uncertainty stated by the source.
Endpoint: refractive index

Below: 4 compounds and their reported refractive index.
>  <Compound>
O [water]

>  <refractive index>
1.33249 ± 0.001

$$$$
>  <Compound>
CC(C)=O [acetone]

>  <refractive index>
1.35553 ± 0.001

$$$$
>  <Compound>
CCC(C)(C)O [2-methylbutan-2-ol]

>  <refractive index>
1.40219 ± 0.001

$$$$
>  <Compound>
CC(=O)CC(C)C [4-methylpentan-2-one]

>  <refractive index>
1.39327 ± 0.001

$$$$

input: Determine its reported refractive index: O=Cc1ccco1 [2-furaldehyde]
output: 1.52263 ± 0.001
